- Experimental system: BRD4-NanoLuc (Homo sapiens)
- Construct: expressed in transfected cells; host or cells: HEK293
- Assay overview: NanoBRET target engagement assay, live and permeabilized HEK293 cells (BRD4)
- Format: cell-based
- Details: live HEK293 cells, BRD4 NanoBRET TE; read-out: Live-Cell TE; IC50
Listed below: IC50 values for each entry.
Reply with the number and its unit after it.

Cc1ncsc1-c1ccc(CNC(=O)[C@@H]2C[C@@H](O)CN2C(=O)[C@@H](NC(=O)COCc2cn(CCNC(=O)C[C@@H]3N=C(c4ccc(Cl)cc4)c4c(sc(C)c4C)-n4c(C)nnc43)nn2)C(C)(C)C)cc1 | 21.6 µM
Cc1ncsc1-c1ccc(CNC(=O)[C@@H]2C[C@@H](O)CN2C(=O)[C@@H](NC(=O)COCCOCCOCc2cn(CCNC(=O)C[C@@H]3N=C(c4ccc(Cl)cc4)c4c(sc(C)c4C)-n4c(C)nnc43)nn2)C(C)(C)C)cc1 | 12.6 µM
Cc1ncsc1-c1ccc(CNC(=O)[C@@H]2C[C@@H](O)CN2C(=O)[C@@H](NC(=O)COCCOCCOCCOCc2cn(CCNC(=O)C[C@@H]3N=C(c4ccc(Cl)cc4)c4c(sc(C)c4C)-n4c(C)nnc43)nn2)C(C)(C)C)cc1 | 3.92 µM
Cc1ncsc1-c1ccc(CNC(=O)[C@@H]2C[C@@H](O)CN2C(=O)[C@@H](NC(=O)COCCOCc2cn(CCNC(=O)C[C@@H]3N=C(c4ccc(Cl)cc4)c4c(sc(C)c4C)-n4c(C)nnc43)nn2)C(C)(C)C)cc1 | 7.27 µM

[ask] # returns recorded IC50 (system: BRD4-NanoLuc (Homo sapiens)) for Cc1ncsc1-c1ccc(CNC(=O)[C@@H]2C[C@@H](O)CN2C(=O)[C@@H](NC(=O)COCCOCCOCCOCCOCc2cn(CCNC(=O)C[C@@H]3N=C(c4ccc(Cl)cc4)c4c(sc(C)c4C)-n4c(C)nnc43)nn2)C(C)(C)C)cc1
[reply] 18 µM

====

Recorded log10 of Kd, one value per entry.
- Experimental system: SMARCA2^BD (Homo sapiens)
- Construct: SMARCA2^BD 1373–1511 ∆1400–1417
- Sequence (P51531 1373-1493 isoform P51531-2): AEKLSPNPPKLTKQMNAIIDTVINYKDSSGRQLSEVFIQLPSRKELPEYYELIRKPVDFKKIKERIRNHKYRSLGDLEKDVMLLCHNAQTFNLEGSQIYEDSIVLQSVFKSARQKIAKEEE
- Assay overview: SPR binary binding of PROTAC to SMARCA2-functionalized surface
- Details: 1:1 Langmuir binding model, SEM N=3 or SD N=2, read-out: KTP (binary affinity PROTAC / SMARCA2)
Heads up: the numbers are on a log10 scale; they represent Kd in nM.

Take a look at these entries with their results.
Cc1ncsc1-c1ccc([C@H](C)NC(=O)[C@@H]2C[C@@H](O)CN2C(=O)[C@@H](NC(=O)c2cccc(N3CCN(c4nc(-c5ccccc5O)nnc4N)CC3)n2)C(C)(C)C)cc1 | 2.47
Cc1ncsc1-c1ccc([C@H](C)NC(=O)[C@@H]2C[C@@H](O)CN2C(=O)[C@@H](NC(=O)CCc2ccnc(N3CCN(c4cc(-c5ccccc5O)nnc4N)CC3)c2)C(C)(C)C)cc1 | 1.69
Cc1ncsc1-c1ccc([C@H](C)NC(=O)[C@@H]2C[C@@H](O)CN2C(=O)[C@@H](NC(=O)CN2CCN(c3cc(-c4ccccc4O)nnc3N)CC2)C(C)(C)C)cc1 [Compound 6, reference compound] | 1.15
Cc1ncsc1-c1ccc(CNC(=O)C2C[C@@H](O)CN2C(=O)C(NC(=O)C2(F)CC2)C(C)(C)C)c(OCCc2ccc(CN3CCN(c4cc(-c5ccccc5O)nnc4N)CC3)cc2)c1 (stereo in doubt) [Compound 11, reference compound] | 2.48
Cc1ncsc1-c1ccc([C@H](C)NC(=O)[C@@H]2C[C@@H](O)CN2C(=O)[C@@H](NC(=O)c2ccnc(N3CCN(c4cnnc(-c5ccccc5O)c4)CC3)c2)C(C)(C)C)cc1 | 2.87
Cc1ncsc1-c1ccc([C@H](C)NC(=O)[C@@H]2C[C@@H](O)CN2C(=O)[C@@H](NC(=O)Cc2ccnc(N3CCN(c4cc(-c5ccccc5O)nnc4N)CC3)c2)C(C)(C)C)cc1 | 1.66
Cc1ncsc1-c1ccc([C@H](C)NC(=O)[C@@H]2C[C@@H](O)CN2C(=O)[C@@H](NC(=O)c2cccc(N3CCN(c4cc(-c5ccccc5O)nnc4N)CC3)c2)C(C)(C)C)cc1 | 2.37
Cc1ncsc1-c1ccc([C@H](C)NC(=O)[C@@H]2C[C@@H](O)CN2C(=O)[C@@H](NC(=O)c2cccc(N3CCN(c4cc(-c5ccccc5O)nnc4N)CC3)n2)C(C)(C)C)cc1 | 2.29

[ask] State the recorded log10 of Kd for this entry: Cc1ncsc1-c1ccc([C@H](C)NC(=O)[C@@H]2C[C@@H](O)CN2C(=O)[C@@H](NC(=O)c2ccnc(N3CCN(c4cc(-c5ccccc5O)nnc4N)CC3)c2)C(C)(C)C)cc1
[reply] 1.98

[ask] Subsequent entry: Cc1ncsc1-c1ccc([C@H](C)NC(=O)[C@@H]2C[C@@H](O)CN2C(=O)[C@@H](NC(=O)c2csc(N3CCN(c4cc(-c5ccccc5O)nnc4N)CC3)n2)C(C)(C)C)cc1
[reply] 2.31
